- PROTOCOL DETAILS: qHTS for Inhibitors of human tyrosyl-DNA phosphodiesterase 1 (TDP1): qHTS in cells in absence of CPT; note: nearly all actives have a fitted effect of over 55% in size
- RUN PARAMETERS: DT40 Tdp1-/- hTDP1 cells, no CPT, ATP luminescence, 48 h
Out of some 420,000 compounds screened, about 64,000 (15%) were called active. Another 27% or so got no clear call; they are omitted. Calls come from the whole dose curve; as a rule, active = well fitted inhibition curve with a large enough effect; inconclusive = small, poorly fitted or top-dose-only effect; inactive = flat fitted curve, though single readings scatter. The list is a sample of the results.
// allowed return values: Y (active), N (inactive)

Query: Which outcome was assigned to Cn1nc(C(=O)OCC(=O)N(Cc2ccccc2)C(C)(C)C)c2ccccc2c1=O in this test?
Response: N

Query: Given CSC1=NN(c2ccccc2)CN(c2ccccc2)N1C , state the outcome it received in this test.
Response: N

Query: Returns: the outcome recorded for O=S(=O)(c1ccc(Cl)cc1)c1nc(-c2ccccc2F)oc1NCCN1CCOCC1 in this assay.
Response: N

Query: Which outcome was entered for the compound Cc1cccc(OCC(=O)NC2CC(C)(C)NC(C)(C)C2)c1 in this test?
Response: N

Query: Recorded test outcome, item CCOC(=O)c1cc(-c2ccc(F)cc2)n(CC(=O)NCc2ccccn2)c1C
Response: N

Query: Please let me know the test result on file for COc1ccc2nc(C)cc(Nc3cccc(C(=O)O)c3)c2c1 .
Response: N

Query: Could you please tell me the result logged for O=S(=O)(c1ccccc1)c1nc(-c2ccc(Cl)cc2Cl)oc1N1CCCCC1 in this assay?
Response: Y

Query: What classification did O=C(CSc1oc(-c2ccccc2)nc1S(=O)(=O)c1ccc(Br)cc1)NC1CCCCC1 end up with in this test?
Response: N

Query: Hi, sorry to bother you, what did the test record for CC12CCC(C(=O)N(NC(=O)c3ccccc3O)C1=O)C2(C)C (stereo not given) ?
Response: Y

Query: Per the assay record, what outcome was assigned to O=C1Cc2cc(S(=O)(=O)Nc3cccc(F)c3)ccc2N1 ?
Response: N

Query: Per the assay record, what outcome was assigned to C=CCOc1ccc(C(=O)Nc2ccccc2C(=O)N2CCCC2)cc1 ?
Response: N

Query: Test call for this compound, please: COc1cccc(NC(=O)CCNS(=O)(=O)c2ccc3c(c2)oc(=O)n3C)c1
Response: N

Query: Hi, do you know how O=C(Nc1ccccc1)Nc1ccccc1C(=O)NCc1ccco1 came out in this test?
Response: N

Query: State the result this test recorded for Cc1cc(NC(=O)CSc2nnc(-c3ccco3)n2N)no1 .
Response: N

Query: Can you look up the reported call for COc1ccc(CCNC(=O)c2ccc(-n3c(C)cc4c3CCCC4)cc2)cc1OC for me?
Response: Y

Query: Dear colleague, could you share the recorded outcome for COc1ccc(-c2nc(S(=O)(=O)c3ccccc3)c(N3CCCCC3)o2)cc1 when you have a moment?
Response: Y

Query: What call does the record list for COc1ccc(-c2nc3nc(C)cc(C)n3c2Nc2c(C)cccc2C)cc1 ?
Response: Y

Query: Called result for COc1ccccc1C1/C(=C(/O)c2ccc(OC(C)C)cc2)C(=O)C(=O)N1c1cc(C)on1 (stereo not given)
Response: N

Query: Hi, do you know how Cn1nccc1/C=N\NC(=O)c1ccc(Cl)cc1 came out in this test?
Response: N

Query: Call for entry COc1cccc(-c2nc3nc(C)cc(C)n3c2NC2CCCCC2)c1 :
Response: Y

Query: Just curious, what result did CCCCn1c(N)c(N(CC(C)C)C(=O)C2CSC3(C)CCC(=O)N23)c(=O)[nH]c1=O (stereo not given) get here?
Response: N

Query: Dear all, I need the recorded test outcome for Nc1ccn(CC(=O)N2CCN(c3ccccn3)CC2)c(=O)n1 , thank you.
Response: N

Query: Outcome logged for Cc1cccc(Nc2ccccc2C(=O)NCc2ccco2)c1C in this assay:
Response: Y

Query: Identify the outcome logged in this assay for the compound shown: CCOc1cc(C(=S)N2CCOCC2)ccc1OS(=O)(=O)c1ccc(Br)cc1
Response: Y

Query: Dear colleague, could you share the recorded outcome for COc1ccc2c(CC(=O)N3CCc4cc(OC)c(OC)cc4C3)coc2c1 when you have a moment?
Response: N

Query: Field: outcome | Entry: COCCn1c(=S)[nH]c2cc(C(=O)NCCc3ccc(OC)c(OC)c3)ccc2c1=O
Response: N

Query: Short answer needed: outcome of this test for Cn1nccc1NC(=O)CC(CC(=O)O)c1ccccc1 (stereo not given) ?
Response: N

Query: Give the logged outcome of this assay for the following compound: CSCCC(NC(=O)COc1ccccc1)C(=O)N(C)CC(=O)Nc1ccc(C)cc1 (stereo not given)
Response: N

Query: // return assay outcome for CC(C)n1c(O)c(N=Nc2ccccn2)c2ccccc21
Response: N

Query: // outcome(item) with item = COc1ccc(-c2cc(C)nc3nc(N)nn23)cc1
Response: N

Query: Please indicate how the test categorized C=CCO/N=C/C1=C(O)C(C(=O)OC)C(C)(C)CC1=O (stereo not given) .
Response: N

Query: What is the recorded call for this compound in the test? Cc1cccc(C(=O)OC(C)CN2CCN(C)CC2)c1 (stereo not given)
Response: N

Query: Hi, sorry to bother you, what did the test record for CS(=O)(=O)N(CC(=O)NCc1ccco1)c1ccc2c(c1)OCO2 ?
Response: N

Query: What outcome does the record of this test show for O=C(NN1C(=O)C2C(C1=O)C1C=CC2C12CC2)c1ccccc1Cl (stereo not given) ?
Response: N

Query: Hello, I am checking results. What call was entered for Cc1cc(C)c2c(c1)cc(C)c1nnc(SCC(=O)Nc3cc(C)on3)n12 ?
Response: Y

Query: # outcome recorded in this test, key = CSc1nc(-c2ccco2)nn1C(=O)c1ccccc1Cl
Response: N

Query: Test call for this compound, please: COc1cccc(-c2cnc(OC(C)(C)C)nc2OC(C)(C)C)c1
Response: N

Query: Entry Cc1ccccc1N1CC(C(=O)Nc2nnc(SCCC3OCCO3)s2)CC1=O (stereo not given) : call = ?
Response: N

Query: In this assay, the call recorded for O=C(CSCc1cccs1)N1CCCC1 was what?
Response: N

Query: Please let me know the test result on file for Cc1cc(NC(=O)CSc2nnnn2-c2ccc(F)cc2)no1 .
Response: N

Query: Any idea what this test logged for CC(CCn1cccn1)NC(=O)CCc1nnc(CCc2ccccc2)o1 (stereo not given) ?
Response: N

Query: In this assay, the call recorded for Cc1ccccc1NC(=O)NCc1ccco1 was what?
Response: N

Query: What did this assay record as the result for COc1ccc(CCNC(=O)CSCc2ccc(Br)cc2)cc1OC ?
Response: N

Query: Per the records of this test, what outcome belongs to Cc1ccc(S(=O)(=O)NNC(=O)Nc2cccc3ccccc23)cc1 ?
Response: N

Query: In this assay, the call recorded for Cc1cc(=O)oc2cc(OC(C)C(=O)Nc3ccc(N4CCOCC4)cc3)ccc12 (stereo not given) was what?
Response: N
